test: Inhibition of HIV1 reverse transcriptase M184V mutant-mediated viral DNA synthesis in human HOS cells assessed as luciferase activity treated 3 hrs before infection measured after 48 hrs by luminescence assay
OUTCOME_MEASURE: pIC50
Worth noting: pIC50 values are minus log10 of concentrations stated in mol/L.

Lookup: So what's the measured pIC50 for this one? Cc1cn([C@@H]2C[C@H](CO)[C@@H](O)C2)c(=O)[nH]c1=O
Found: 5.74
